# experimental_target: T1, human EpCAM (human, UniProt P16422 24-314)
# T1 sequence (looked up): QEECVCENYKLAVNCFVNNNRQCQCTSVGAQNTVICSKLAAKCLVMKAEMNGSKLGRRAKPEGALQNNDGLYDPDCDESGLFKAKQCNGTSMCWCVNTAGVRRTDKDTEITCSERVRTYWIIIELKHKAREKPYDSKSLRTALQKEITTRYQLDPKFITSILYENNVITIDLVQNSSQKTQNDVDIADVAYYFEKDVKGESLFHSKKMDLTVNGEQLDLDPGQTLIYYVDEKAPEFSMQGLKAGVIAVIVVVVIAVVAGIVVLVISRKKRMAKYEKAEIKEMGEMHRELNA
# experiment_summary: cell-based or functional assay
observable: IC50 (nM), cytotoxicity on COLO205 cells (CellTiterGlo)

Recorded IC50 (nM), cytotoxicity on COLO205 cells (CellTiterGlo), per entry:
ISOP130R5CP6_A06_Y84A vcMMAF conjugate (designed binder, vcMMAF conjugated via the sortase reaction at the C-terminal sortase tag) MLPAPKNLVVSRVTEDSARLSWKHYRPGARFDSFLIQYQESEKVGEAIVLTVPGSERSYDLTGLKPGTEYTVSIYGVVTALPSAYSSNPLSAIFTTGGHHHHHHGGLPETGGH
0.4 nM
ISOP130R5CP6_A06_R30A vcMMAF conjugate (designed binder, vcMMAF conjugated via the sortase reaction at the C-terminal sortase tag) MLPAPKNLVVSRVTEDSARLSWKHYRPGAAFDSFLIQYQESEKVGEAIVLTVPGSERSYDLTGLKPGTEYTVSIYGVVTALPSYYSSNPLSAIFTTGGHHHHHHGGLPETGGH
0.8 nM
ISOP130R5CP6_A06_V78A vcMMAF conjugate (designed binder, vcMMAF conjugated via the sortase reaction at the C-terminal sortase tag) MLPAPKNLVVSRVTEDSARLSWKHYRPGARFDSFLIQYQESEKVGEAIVLTVPGSERSYDLTGLKPGTEYTVSIYGVATALPSYYSSNPLSAIFTTGGHHHHHHGGLPETGGH
4.5 nM

Note: attention shifts to another entry.
Data request: Fill in the blank: the reported IC50 (nM), cytotoxicity on COLO205 cells (CellTiterGlo) of ISOP130R5CP6_A06_S83A vcMMAF conjugate (designed binder, vcMMAF conjugated via the sortase reaction at the C-terminal sortase tag) MLPAPKNLVVSRVTEDSARLSWKHYRPGARFDSFLIQYQESEKVGEAIVLTVPGSERSYDLTGLKPGTEYTVSIYGVVTALPAYYSSNPLSAIFTTGGHHHHHHGGLPETGGH is ____.
Data returned: 1.4 nM

Hey, just so you know, these numbers are from patent US20190184028A1.
